Origin of the recorded values: patent US12378211B2

# maps each entry to its MIC
test system: Mutant-15 of Enterococcus fecalis NR 31975; test: microbe, parasite or virus in culture; format: cell-based; details: Enterococcus

# example entries with known answers
Sample "CCCC(=O)Nc1nnc(S(N)(=O)=O)s1" — what was its MIC? 16 µg/mL

Sample CC(=O)NC[C@H]1CN(c2ccc(N3CCOCC3)c(F)c2)C(=O)O1 [Linezolid, reference compound] — what was its MIC? 8 µg/mL

Sample "CCc1ccc(C(=O)Nc2nnc(S(N)(=O)=O)s2)cc1" — what was its MIC? 16 µg/mL

Sample CC(=O)Nc1nnc(S(N)(=O)=O)s1 [Acetazolamide, reference compound] — what was its MIC? 32 µg/mL

Kindly consider the entry below.
Sample "CC(C)(C)C(=O)Nc1nnc(S(N)(=O)=O)s1" — what was its MIC? 4 µg/mL

###

tested on: Enterococcus fecalis Strain MMH594-NR31975; experiment: MIC, broth microdilution in TSB; assay type: cell-based; settings: Enterococcus; TSB; Table 7; read-out: MIC in TSB
# maps each entry to its MIC
Give the value, in units of µg/mL, as a plain number.

# example entries with known answers
Sample "CC(C)(C)CC(=O)Nc1nnc(S(N)(=O)=O)s1" — what was its MIC? 0.03

Sample "CCC(=O)Nc1nnc(S(N)(=O)=O)s1" — what was its MIC? 2

Kindly consider the entry below.
Sample "NS(=O)(=O)c1nnc(NC(=O)C2CCCC2)s1" — what was its MIC? 0.5

###

test system: Enterococcus faecalis—S613 HM-334; experiment: MIC, broth microdilution in TSB; assay type: cell-based; conditions: Enterococcus; TSB; Table 7; read-out: MIC in TSB
Experimental readout: MIC (ng/mL)
Give the value, in units of ng/mL, as a plain number.

# example entries with known answers
Sample NS(=O)(=O)c1nnc(NC(=O)C2CC2)s1 [CAI0020] — what was its MIC? 7

Sample CCCCCCC(=O)Nc1nnc(S(N)(=O)=O)s1 [CAI0027] — what was its MIC? 7

***
Sample CC(C)(C)CC(=O)Nc1nnc(S(N)(=O)=O)s1 [CAI0028] — what was its MIC? 30
